B1: TPR 5TU (parent)
chain: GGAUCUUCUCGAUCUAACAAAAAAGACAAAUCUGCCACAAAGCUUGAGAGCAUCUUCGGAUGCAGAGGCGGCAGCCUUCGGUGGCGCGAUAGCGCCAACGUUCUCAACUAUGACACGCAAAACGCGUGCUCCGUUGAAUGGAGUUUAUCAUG

# Variants of: B1
# assay text: polymerase ribozyme fitness, log enrichment relative to wild type (log ratio); higher = more active; in vitro selection for triplet polymerase activity
Fewer inactive variants are shown than the library holds.
Decide by polymerase ribozyme fitness (log ratio): equal to or exceeding -0.6 means 1, less means -1.

Recorded results for 5 variants are shown here.
mutation id: G74A U148A
class label: -1
--
mutation id: U4G A41U A91C A97U
class label: -1
--
mutation id: A40C G81A
class label: 1
--
mutation id: C96G C125G U130G C132A
class label: -1
--
mutation id: C36U C38A A91U C103A C116A
class label: -1

Ask: Hi team, for A30U C35U G68U A120U , is the recorded polymerase ribozyme fitness (log ratio) at or above -0.6?
Reply: -1

Ask: Repeat with A28G U44G A91U C99U
Reply: -1

Ask: Repeat with A52G G84A
Reply: -1

Ask: Repeat with G67U C85G
Reply: -1

Reference for the values: the RNAGym collection of RNA variant scans (doi:10.1073/pnas.2313332121)
